# measured-target: Tyrosine-protein kinase Fyn (Homo sapiens, UniProt P06241)
# Sequence (P06241 whole entry): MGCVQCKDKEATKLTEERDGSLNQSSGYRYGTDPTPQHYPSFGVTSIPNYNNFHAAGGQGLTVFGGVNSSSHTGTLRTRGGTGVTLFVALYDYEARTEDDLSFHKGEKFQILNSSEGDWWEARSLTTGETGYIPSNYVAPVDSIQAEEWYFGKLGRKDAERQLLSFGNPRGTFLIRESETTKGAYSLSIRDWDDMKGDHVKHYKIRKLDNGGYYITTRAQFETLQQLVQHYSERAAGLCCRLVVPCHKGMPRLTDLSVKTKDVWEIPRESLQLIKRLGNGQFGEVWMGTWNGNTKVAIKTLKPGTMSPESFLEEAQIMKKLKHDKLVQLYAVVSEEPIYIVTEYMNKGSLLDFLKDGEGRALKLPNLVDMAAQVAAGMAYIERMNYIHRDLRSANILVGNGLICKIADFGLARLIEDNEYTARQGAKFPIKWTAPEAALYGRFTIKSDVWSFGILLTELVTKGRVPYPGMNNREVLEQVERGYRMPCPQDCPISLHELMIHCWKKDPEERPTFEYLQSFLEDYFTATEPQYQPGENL
pIC50: −log10 of the molar value.
reported-endpoint: pIC50

compound: CNC(=O)Nc1ccc2c(c1)CC[C@@]21OC(=O)N(CC(=O)N(Cc2ccc(F)cc2)[C@@H](C)C(F)(F)F)C1=O [A-485]
reported-endpoint: pIC50
result: < 5.00

---

# Test system: NCI-H1373
# measurement-description: Antiproliferative activity against human NCI-H1373 cells assessed as inhibition of cell viability incubated for 3 to 5 days by Celltiter-Glo luminescent assay
# Assay type: functional, cell-based
reported-endpoint: EC50 (µM)

given-smiles: CNC(=O)Nc1ccc2c(c1)CC[C@@]21OC(=O)N(CC(=O)N(Cc2ccc(F)cc2)[C@@H](C)C(F)(F)F)C1=O
reported-endpoint: EC50
result-number: 2.34

---

# measured-target: G protein-coupled receptor kinase 5 (Homo sapiens)
# Sequence (P34947 whole entry): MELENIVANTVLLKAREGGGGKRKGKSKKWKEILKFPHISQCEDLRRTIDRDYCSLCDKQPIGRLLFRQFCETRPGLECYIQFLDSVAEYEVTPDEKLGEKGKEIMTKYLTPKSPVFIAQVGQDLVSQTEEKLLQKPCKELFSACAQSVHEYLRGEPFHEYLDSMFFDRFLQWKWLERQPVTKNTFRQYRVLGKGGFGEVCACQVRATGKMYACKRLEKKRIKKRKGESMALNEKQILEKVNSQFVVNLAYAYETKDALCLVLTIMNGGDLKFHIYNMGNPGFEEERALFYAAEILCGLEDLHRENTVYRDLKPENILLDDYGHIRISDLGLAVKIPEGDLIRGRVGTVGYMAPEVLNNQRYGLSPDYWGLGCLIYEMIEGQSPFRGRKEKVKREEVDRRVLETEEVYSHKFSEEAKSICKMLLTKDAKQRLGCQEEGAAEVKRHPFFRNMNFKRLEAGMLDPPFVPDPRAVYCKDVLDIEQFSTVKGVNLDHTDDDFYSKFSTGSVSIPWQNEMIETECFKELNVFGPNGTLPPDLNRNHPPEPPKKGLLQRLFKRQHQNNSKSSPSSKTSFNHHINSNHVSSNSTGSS
pIC50: −log10 of the molar value.
reported-endpoint: pIC50

given-smiles: CNC(=O)Nc1ccc2c(c1)CC[C@@]21OC(=O)N(CC(=O)N(Cc2ccc(F)cc2)[C@@H](C)C(F)(F)F)C1=O
result: < 5.00

---

# measured-target: Cyclin-dependent kinase 11B (Homo sapiens, UniProt P21127)
# Sequence (P21127 whole entry): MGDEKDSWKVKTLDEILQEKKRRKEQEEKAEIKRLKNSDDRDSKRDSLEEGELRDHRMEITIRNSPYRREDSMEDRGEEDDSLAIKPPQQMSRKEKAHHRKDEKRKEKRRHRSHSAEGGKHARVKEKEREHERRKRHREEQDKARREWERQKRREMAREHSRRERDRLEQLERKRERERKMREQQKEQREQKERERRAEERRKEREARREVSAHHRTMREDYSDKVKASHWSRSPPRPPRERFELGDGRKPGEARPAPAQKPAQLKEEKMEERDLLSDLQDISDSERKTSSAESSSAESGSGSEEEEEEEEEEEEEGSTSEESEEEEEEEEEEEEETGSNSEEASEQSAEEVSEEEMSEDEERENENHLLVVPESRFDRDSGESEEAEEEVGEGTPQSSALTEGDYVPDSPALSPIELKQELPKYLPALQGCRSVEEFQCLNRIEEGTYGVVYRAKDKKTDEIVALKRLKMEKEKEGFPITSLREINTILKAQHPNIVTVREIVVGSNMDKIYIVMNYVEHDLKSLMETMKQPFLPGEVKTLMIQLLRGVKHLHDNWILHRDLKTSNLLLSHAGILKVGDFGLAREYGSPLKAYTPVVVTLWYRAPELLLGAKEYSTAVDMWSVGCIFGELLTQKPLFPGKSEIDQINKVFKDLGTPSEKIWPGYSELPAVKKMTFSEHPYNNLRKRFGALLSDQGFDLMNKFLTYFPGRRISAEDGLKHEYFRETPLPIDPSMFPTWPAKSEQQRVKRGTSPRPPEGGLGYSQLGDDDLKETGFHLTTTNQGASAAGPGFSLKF

compound: CNC(=O)Nc1ccc2c(c1)CC[C@@]21OC(=O)N(CC(=O)N(Cc2ccc(F)cc2)[C@@H](C)C(F)(F)F)C1=O [A-485]
IC50: > 10 µM

---

# Tested on: BJAB
# measurement-description: Antiproliferative activity against human BJAB cells assessed as inhibition of cell viability incubated for 3 to 5 days by Celltiter-Glo luminescent assay
# Format: functional, cell-based
pEC50: −log10 of the molar value.
reported-endpoint: pEC50

compound: CNC(=O)Nc1ccc2c(c1)CC[C@@]21OC(=O)N(CC(=O)N(Cc2ccc(F)cc2)[C@@H](C)C(F)(F)F)C1=O [A-485]
result-number: 6.55

---

# measured-target: Calcium/calmodulin-dependent protein kinase type II subunit alpha (Homo sapiens, UniProt Q9UQM7)
# Sequence (Q9UQM7 whole entry): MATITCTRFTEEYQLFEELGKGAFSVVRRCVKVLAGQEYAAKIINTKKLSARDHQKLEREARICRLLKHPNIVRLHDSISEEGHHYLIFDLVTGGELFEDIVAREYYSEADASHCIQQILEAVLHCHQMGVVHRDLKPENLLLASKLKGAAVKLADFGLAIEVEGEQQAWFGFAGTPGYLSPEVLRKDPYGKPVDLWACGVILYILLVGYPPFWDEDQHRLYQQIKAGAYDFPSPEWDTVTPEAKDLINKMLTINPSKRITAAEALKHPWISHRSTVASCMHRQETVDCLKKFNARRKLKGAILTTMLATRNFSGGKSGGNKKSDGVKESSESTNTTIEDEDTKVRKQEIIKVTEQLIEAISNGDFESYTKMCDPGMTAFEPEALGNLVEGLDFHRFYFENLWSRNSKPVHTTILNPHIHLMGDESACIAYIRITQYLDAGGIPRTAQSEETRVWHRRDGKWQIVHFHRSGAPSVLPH
# measurement-description: Inhibition of CAMK2A (unknown origin)
pIC50: −log10 of the molar value.

given-smiles: CNC(=O)Nc1ccc2c(c1)CC[C@@]21OC(=O)N(CC(=O)N(Cc2ccc(F)cc2)[C@@H](C)C(F)(F)F)C1=O
pIC50: < 5.00

---

# measurement-description: Tmax in CB17 SCID mouse xenografted with LuCaP-77 CR cell at 100 mg/kg, ip administered for 7 days
# Assay type: ADME, organism-based
# test-context: in vivo, time 7 day

compound: CNC(=O)Nc1ccc2c(c1)CC[C@@]21OC(=O)N(CC(=O)N(Cc2ccc(F)cc2)[C@@H](C)C(F)(F)F)C1=O [A-485]
Tmax, h: 3

---

# Tested on: NCI-H69
# measurement-description: Antiproliferative activity against human NCI-H69 cells assessed as inhibition of cell viability incubated for 3 to 5 days by Celltiter-Glo luminescent assay
# Format: functional, cell-based
reported-endpoint: EC50

compound: CNC(=O)Nc1ccc2c(c1)CC[C@@]21OC(=O)N(CC(=O)N(Cc2ccc(F)cc2)[C@@H](C)C(F)(F)F)C1=O [A-485]
result: > 10 µM

---

# measured-target: Serine/threonine-protein kinase Nek2 (Homo sapiens, UniProt P51955)
# Sequence (P51955 whole entry): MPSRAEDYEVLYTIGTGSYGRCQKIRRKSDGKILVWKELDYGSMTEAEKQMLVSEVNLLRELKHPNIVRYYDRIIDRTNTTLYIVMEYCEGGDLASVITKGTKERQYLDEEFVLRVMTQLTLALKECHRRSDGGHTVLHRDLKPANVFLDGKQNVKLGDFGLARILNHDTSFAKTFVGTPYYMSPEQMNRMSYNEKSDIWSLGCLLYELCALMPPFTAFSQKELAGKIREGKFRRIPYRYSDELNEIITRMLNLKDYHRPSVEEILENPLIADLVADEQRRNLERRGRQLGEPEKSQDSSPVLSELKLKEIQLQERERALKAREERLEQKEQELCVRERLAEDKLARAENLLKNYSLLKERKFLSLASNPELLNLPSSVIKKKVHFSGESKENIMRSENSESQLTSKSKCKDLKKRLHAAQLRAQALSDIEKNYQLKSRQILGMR
reported-endpoint: IC50

compound: CNC(=O)Nc1ccc2c(c1)CC[C@@]21OC(=O)N(CC(=O)N(Cc2ccc(F)cc2)[C@@H](C)C(F)(F)F)C1=O [A-485]
result: > 10 µM
